# Tested on: p38-delta;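 also: KINOMEscan kinase panel screen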
# CONDITIONS USED: concentration: 1 μM,replicates: in singlicate; n = 1
EXPERIMENTAL ENDPOINT: %Inh
Entry format: amount then unit.

Take a look at these entries with their results.
compound=C[C@@H](Oc1cc(-c2cnn(C3CCNCC3)c2)cnc1N)c1c(Cl)ccc(F)c1Cl result=30%
compound="Nc1nc(Nc2ccccc2)cc(-c2ccc3c(N)n[nH]c3c2)n1 [GSK2225749]" result=0%
compound=CNC(=O)c1ccccc1Sc1ccc2c(/C=C/c3ccccn3)n[nH]c2c1 result=10%
compound="Cl.Cl.NC[C@H](CC1CCCCC1)NC(=O)c1cc(Br)c(-c2ccnc3[nH]ccc23)s1 [GSK1581427]" result=4%
compound=CC(C)N1C(=O)Cc2cc(Nc3ncc(C(F)(F)F)c(NCc4cccc(S(C)(=O)=O)c4)n3)ccc21 result=0%
compound="O=C(NCCNc1ccnc(NCc2ccc(F)cc2)n1)c1cc2ccccc2s1 [GSK1379944]" result=40%
compound=C[C@H]1Oc2cc(cnc2N)-c2c(nn(C)c2C#N)CN(C)C(=O)c2ccc(F)cc21 result=0%
compound="COc1ccc(C[C@@H](CN)NC(=O)c2cc(Br)c(-c3ccnc4[nH]ccc34)s2)cc1.Cl.Cl [GSK1389063]" result=46%

Input line: Recorded %Inh for `O=C(NCCCN1CCOC1=O)c1cnc(NCc2cc(Cl)ccc2Cl)nc1NC1CCCC1` , please?
Output line: 44%

Input line: Moving on to C=CC(=O)Nc1cc2c(Nc3ccc(F)c(Cl)c3)ncnc2cc1OCCCN1CCOCC1 [GW781483]
Output line: 20%

Input line: Also CN(C)CC(O)COc1ccc(Nc2nccc(-c3cnn4nc(N5CCOCC5)ccc34)n2)cc1 (stereo not shown) [GW767488] , if possible.
Output line: 38%

Input line: # iterate: CC(C)Nc1cc(-c2ccc3c(N)n[nH]c3c2)nc(N)n1 [GSK2221681]
Output line: 1%

Input line: Then NC(=O)c1cc(-c2ccccc2)cc2c(C3CCNCC3)c[nH]c12 [GSK301362] ?
Output line: 35%
